tested on: male spontaneously hypertensive rats; assay: Decrease in systolic blood pressure in spontaneously hypertensive rats after intravenous bolus injection, indirect (tail-cuff) method; type: in vivo, rat; details: dose 3 mg/kg i.v. bolus, 4 hours after administration
measureName: Decrease in systolic blood pressure (mmHg) time after administration (hour) 4

In [3]: df
Out[3]:
                                    compound                       targetundertest  endpointresult
 0  COc1ccc(C(=O)CCCN2CCC(=C3c4ccccc4CSc4ccccc43)CC2)cc1OC.Cl  male spontaneously hypertensive rats             −14
 1  CN1CCCC(CCCCN2CCC(=C3c4ccccc4C=Cc4ccccc43)CC2)C1.Cl.Cl (centres unmarked)  male spontaneously hypertensive rats               1
 2  Cl.O=C(NCCN1CCCCC1=C1c2ccccc2C=Cc2ccccc21)c1cccc([N+](=O)[O-])c1  male spontaneously hypertensive rats              15
 3  Cl.N#Cc1ccc(C=CCN2CCC(=C3c4ccccc4C=Cc4ccccc43)CC2)cc1  male spontaneously hypertensive rats            −121
 4  Cl.Nc1ccc(C=CCN2CCC(=C3c4ccccc4C=Cc4ccccc43)CC2)cc1  male spontaneously hypertensive rats            −115
 5  CC(=O)Nc1ccc(C=CCN2CCC(=C3c4ccccc4CCc4ccccc43)CC2)cc1.Cl.Cl  male spontaneously hypertensive rats             −60
 6  COc1cccc(C=CCN2CCC(=C3c4ccccc4C=Cc4ccccc43)CC2)c1.Cl  male spontaneously hypertensive rats             −12
 7  Cl.O=[N+]([O-])c1ccccc1C=CCN1CCC(=C2c3ccccc3C=Cc3ccccc32)CC1  male spontaneously hypertensive rats             −91
 8  COc1ccccc1C=CCN1CCC(=C2c3ccccc3C=Cc3ccccc32)CC1.Cl  male spontaneously hypertensive rats             −53
 9  Cl.Cl.Nc1ccc(C=CCN2CCC(=C3c4ccccc4CCc4ccccc43)CC2)cc1  male spontaneously hypertensive rats             −21
10  CC(=O)N1CCCCC1CCCN1CCC(=C2c3ccccc3C=Cc3ccccc32)CC1.Cl (centres unmarked)  male spontaneously hypertensive rats               7
11  CCCCCCCCCCN1CCC(=C2c3ccccc3C=Cc3ccccc32)CC1.Cl  male spontaneously hypertensive rats             −22
12  CC(=O)Oc1cccc(C=CCN2CCC(=C3c4ccccc4C=Cc4ccccc43)CC2)c1.Cl  male spontaneously hypertensive rats             −68
13  COC(=O)c1ccccc1C=CCN1CCC(=C2c3ccccc3C=Cc3ccccc32)CC1.Cl  male spontaneously hypertensive rats              11
14  COc1cc(C=CCN2CCC(=C3c4ccccc4C=Cc4ccccc43)CC2)ccc1OC(C)=O.Cl  male spontaneously hypertensive rats            −113
15  Cl.Nc1ccccc1C=CCN1CCC(=C2c3ccccc3C=Cc3ccccc32)CC1  male spontaneously hypertensive rats             −19
16  CC(=O)N1CCC(CCCN2CCC(=C3c4ccccc4C=Cc4ccccc43)CC2)CC1.Cl  male spontaneously hypertensive rats              −5
17  COCC(=O)Oc1ccc(C=CCN2CCC(=C3c4ccccc4C=Cc4ccccc43)CC2)cc1.Cl  male spontaneously hypertensive rats             −86
18  Cl.O=C(CCCN1CCC(=C2c3ccccc3C=Cc3ccccc32)CC1)N1CCC(O)CC1  male spontaneously hypertensive rats             −27
19  Cl.O=C(CCCN1CCC(=C2c3ccccc3C=Cc3ccccc32)CC1)N1CCCCC1  male spontaneously hypertensive rats             −58
20  C1=Cc2ccccc2C(=C2CCN(CCCc3ccncc3)CC2)c2ccccc21.Cl.Cl  male spontaneously hypertensive rats              10
21  Cl.Fc1c(F)c(F)c(CN2CCC(=C3c4ccccc4C=Cc4ccccc43)CC2)c(F)c1F  male spontaneously hypertensive rats             −12
22  COc1cc(C=CCN2CCC(=C3c4ccccc4C=Cc4ccccc43)CC2)cc(OC)c1.Cl  male spontaneously hypertensive rats             −95
23  COc1cc2c(cc1OC)CC(CCN1CCC(=C3c4ccccc4C=Cc4ccccc43)CC1)C2.Cl  male spontaneously hypertensive rats              −5
24  C1=Cc2ccccc2C(=C2CCN(CCCCC3CCCCC3)CC2)c2ccccc21.Cl  male spontaneously hypertensive rats             −14
25  C1=Cc2ccccc2C(=C2CCN(CCOCC3CCCCC3)CC2)c2ccccc21.Cl  male spontaneously hypertensive rats             −24
26  COC(=O)c1ccc(C=CCN2CCC(=C3c4ccccc4C=Cc4ccccc43)CC2)cc1.Cl  male spontaneously hypertensive rats             −77
27  COc1ccc(C(=O)NCCN2CCCCC2=C2c3ccccc3C=Cc3ccccc32)c(OC)c1.Cl  male spontaneously hypertensive rats               3
28  COc1ccc(OC)c(C=CCN2CCC(=C3c4ccccc4C=Cc4ccccc43)CC2)c1.Cl  male spontaneously hypertensive rats             −45
29  CCOC(=O)c1ccc(C=CCN2CCC(=C3c4ccccc4C=Cc4ccccc43)CC2)cc1.Cl  male spontaneously hypertensive rats             −74
30  Cc1ccc(CN2CCC(=C3c4ccccc4C=Cc4ccccc43)CC2)cc1.Cl  male spontaneously hypertensive rats             −84
31  Cl.O=C(NCCN1CCCCC1=C1c2ccccc2C=Cc2ccccc21)c1ccccc1[N+](=O)[O-]  male spontaneously hypertensive rats              15

----------
Tested on: male spontaneously hypertensive rats
Test: Decrease in systolic blood pressure in spontaneously hypertensive rats after intravenous bolus injection, indirect (tail-cuff) method
Assay type: in vivo, rat
Conditions: dose 10 mg/kg i.v. bolus, 0.5 hour after administration
Protocol: As test animals, four male spontaneously hypertensive rats (weight 400 to 440 g) that were sufficiently adapted for feeding and in which hypertension was confirmed were used. Physiological saline aqueous solution containing 2.5% Nicolle and 2.5% ethanol of sample was intravenously administered by bolus injection at a dose of 1 ml per 1 kg of body weight. Systolic blood pressure after administration was measured by the indirect (tail-cuff) method.
Listing: Decrease in systolic blood pressure (mmHg) time after administration (hour) 0.5 of selected molecules
measureName: Decrease in systolic blood pressure (mmHg) time after administration (hour) 0.5

                                    molecule     u  endpointresult
 0  COC(=O)C1(CCCN2CCC(=C3c4ccccc4C=Cc4ccccc43)CC2)CCCCC1.Cl [Example 314]  mmHg             −61
 1  Cc1ccc(C(=O)CCCN2CCC(=C3c4ccccc4C=Cc4ccccc43)CC2)cc1C.Cl [Example 198]  mmHg            −124
 2  Cl.O=S(=O)(CCCN1CCC(=C2c3ccccc3C=Cc3ccccc32)CC1)c1ccccc1 [Example 241]  mmHg             −73
 3  C1=Cc2ccccc2C(=C2CCN(CC3CCc4ccccc4C3)CC2)c2ccccc21 (stereo not shown) [Example 225]  mmHg            −115
 4  Cl.O=C(CCCN1CCC(=C2c3ccccc3C=Cc3ccccc32)CC1)c1ccc(F)cc1 [Example 125]  mmHg             −93
 5  Cl.Fc1ccc(C=CCN2CCC(=C3c4ccccc4C=Cc4ccccc43)CC2)cc1 [Example 353]  mmHg            −147
 6  COc1ccc(C(O)CCCN2CCC(=C3c4ccccc4C=Cc4ccccc43)CC2)cc1OC.Cl (stereo not shown) [Example 205]  mmHg             −22
 7  CC(=O)N1CCC(C=CCCCN2CCC(=C3c4ccccc4C=Cc4ccccc43)CC2)CC1.Cl.Cl [Example 321]  mmHg             −60
 8  COc1ccc2c(c1OC)CCC(CCN1CCC(=C3c4ccccc4C=Cc4ccccc43)CC1)C2.Cl (stereo not shown) [Example 318]  mmHg             −83
 9  Cl.Cl.Nc1ccccc1CN1CCC(=C2c3ccccc3C=Cc3ccccc32)CC1 [Example 138]  mmHg            −129
10  C1=Cc2ccccc2C(=C2CCN(CCCCc3ccccc3)CC2)c2ccccc21.Cl [Example 15]  mmHg            −130
11  CCCCCCCCCCCCCCN1CCC(=C2c3ccccc3C=Cc3ccccc32)CC1.Cl [Example 5]  mmHg             −56
12  Cl.O=C(CCN1CCC(=C2c3ccccc3C=Cc3ccccc32)CC1)NC1CCCCC1 [Example 226]  mmHg            −131
13  COc1cc2c(cc1OC)CC(CN1CCC(=C3c4ccccc4C=Cc4ccccc43)CC1)C2.Cl [Example 287]  mmHg             −83
14  Cl.O=[N+]([O-])c1cccc2c1CC(CN1CCC(=C3c4ccccc4C=Cc4ccccc43)CC1)C2 (stereo not shown) [Example 329]  mmHg             −34
15  CC(=O)Nc1cccc2c1CC(CN1CCC(=C3c4ccccc4C=Cc4ccccc43)CC1)C2.Cl (stereo not shown) [Example 331]  mmHg             −62
